- targetEntity: SARS-CoV-2 Spike (SARS-CoV-2), P0DTC2
- testDescription: inhibitor screening kit; ACE2:SARS-CoV-2 Spike (Example 4 assay)
pIC50: −log10 of the molar value.
The binders listed here are annotated with their pIC50.
measurementType: pIC50

In [3]: df
Out[3]:
                                      binder  boundtype  recordedmeasurement
 0  KTFLDKFNHEAEDLFYS (modifications not checked) [Seq26 (LNCOV-34)]          =                 5.68
 1  NMTQGFWENSMLTD (modifications not checked) [Seq30 (LNCOV-36)]          <                 5.00
 2  EQAKTFLDKFNHEAEDLFPKWSAFLKEQSTLAQMYG (modifications not checked) [Seq27 (LNCOV-27)]          =                 7.43
 3  Seq40 (LNCOV-32) (modifications not checked) peptide: KTFLDKFNHEAEDLFPKWSAFLKEQSTLAQMYGLWRALWRLWRSLWRLLWK          =                 7.07
 4  TAWDLGKGDFRI (modifications not checked) [Seq29 (LNCOV-35)]          <                 5.00
 5  NMTQGFWENPGGPTAWDLGK (modifications not checked) [Seq31 (LNCOV-37)]          <                 5.00
 6  EQAKTFLDKFNHEAEDLFLWRALWRLWRSLWRLLWK (modifications not checked) [Seq33 (LNCOV-18)]          =                 7.74
 7  KTFLDKFNHEAEDLF (modifications not checked) [Seq25 (LNCOV-33)]          =                 5.72
 8  KTFLDKFNHEAEDLFPGPKWSAFLKEQSTLAQMYG (modifications not checked) [Seq28 (LNCOV-20)]          =                 7.41
 9  KTFLDKFNHEAEDLFLWRALWRLWRSLWRLLWK (modifications not checked) [Seq34 (LNCOV-25)]          <                 6.00
10  Seq39 (LNCOV-31) (modifications not checked) peptide: EQAKTFLDKFNHEAEDLFPKWSAFLKEQSTLAQMYGLWRALWRLWRSLWRLLWK          =                 7.16
11  TAWDLGKGDFRILWRALWRLWRSLWRLLWK (modifications not checked) [Seq36 (LNCOV-28)]          <                 6.00
12  KTFLDKFNHEAEDLFYSLWRALWRLWRSLWRLLWK (modifications not checked) [Seq35 (LNCOV-26)]          =                 6.14
13  NMTQGFWENSMLTDLWRALWRLWRSLWRLLWK (modifications not checked) [Seq37 (LNCOV-29)]          =                 6.19
